Property: Activity; scope: individual compounds
# Test system: Pseudomonas aeruginosa
# test details: Activity of Pseudomonas aeruginosa 9551 beta-lactamase VIM-15 relative to cephaloridine
measured attribute: Activity (%)

| compound | measured attribute | sign | data value |
| --- | --- | --- | --- |
| C[C@H]1[C@H](NC(=O)/C(=N\OC(C)(C)C(=O)O)c2csc(N)n2)C(=O)N1S(=O)(=O)O | Activity | < | 0.016 |
| CO/N=C(\C(=O)N[C@@H]1C(=O)N2C(C(=O)[O-])=C(C[N+]3(C)CCCC3)CS[C@H]12)c1csc(N)n1 | Activity | = | 5 |
| CO/N=C(\C(=O)N[C@@H]1C(=O)N2C(C(=O)O)=C(COC(C)=O)CS[C@H]12)c1csc(N)n1 | Activity | = | 47 |
| CC(C)(O/N=C(\C(=O)N[C@@H]1C(=O)N2C(C(=O)[O-])=C(C[n+]3ccccc3)CS[C@H]12)c1csc(N)n1)C(=O)O | Activity | = | 0.53 |
| C[C@@H](O)[C@H]1C(=O)N2C(C(=O)O)=C(SCCNC=N)C[C@H]12 [IMIPENEM ANHYDROUS] | Activity | = | 32 |
| O=C(Cc1cccs1)N[C@@H]1C(=O)N2C(C(=O)[O-])=C(C[n+]3ccccc3)CS[C@H]12 | Activity | = | 100 |
